Reported values of Activity for individual entries
# Tested on: Toxoplasma gondii
# MEASUREMENT_PROTOCOL: Antiparasitic activity against Toxoplasma gondii infected african green monkey Vero cells at 0.1 mM assessed as infected cells
# Type: functional
Numbers only here, please. The scale is %.

Activity lookup needed for CN(C)c1ccc(/C=N/NC(=S)Nc2ccccc2)cc1 , thanks.
76.14

Activity lookup needed for CC(C)(C)c1cc(/C=N/N=C2\SC(CC(=O)O)C(=O)N2c2ccccc2)cc(C(C)(C)C)c1O (stereo not drawn) , thanks.
53.55

Activity lookup needed for COc1cc(/C=N/NC(=S)Nc2ccccc2)ccc1O , thanks.
80.05

Activity lookup needed for O=C(O)CC1S/C(=N\N=C\c2ccccc2F)N(c2ccccc2)C1=O (stereo not drawn) , thanks.
70.79

Activity lookup needed for COc1ccc(/C=N/N=C2\SC(CC(=O)O)C(=O)N2c2ccccc2)cc1 (stereo not drawn) , thanks.
27.32

***
Activity lookup needed for COc1cccc(/C=N/NC(=S)Nc2ccccc2)c1 , thanks.
53.6

Activity lookup needed for Cc1cccc(/C=N/N=C2\SC(CC(=O)O)C(=O)N2c2ccccc2)c1 (stereo not drawn) , thanks.
66

Activity lookup needed for NC(=O)NO [HYDROXYUREA] , thanks.
58.23

====

# System: Mycobacterium tuberculosis
# MEASUREMENT_PROTOCOL: Antimicrobial activity against Mycobacterium tuberculosis
# Format: functional
Reported values of MBC for individual entries
Numbers only here, please. The scale is µg/mL.

MBC lookup needed for O=C(O)CC1S/C(=N\N=C\c2ccc(Cl)cc2Cl)N(c2ccccc2)C1=O (centres undefined) , thanks.
60

***
MBC lookup needed for CO[C@H]1/C=C/O[C@@]2(C)Oc3c(C)c(O)c4c(O)c(c(/C=N/N5CCN(C)CC5)c(O)c4c3C2=O)NC(=O)/C(C)=C\C=C\[C@H](C)[C@H](O)[C@@H](C)[C@@H](O)[C@@H](C)[C@H](OC(C)=O)[C@@H]1C [RIFAMPIN] , thanks.
100

MBC lookup needed for CC(C)(C)c1cc(/C=N/N=C2\SC(CC(=O)O)C(=O)N2c2ccccc2)cc(C(C)(C)C)c1O (centres undefined) , thanks.
100

MBC lookup needed for O=C(O)CC1S/C(=N\N=C\c2ccc(Cl)c(Cl)c2)N(c2ccccc2)C1=O (centres undefined) , thanks.
90

====

# Test system: Toxoplasma gondii
# MEASUREMENT_PROTOCOL: Antiparasitic activity against Toxoplasma gondii infected african green monkey Vero cells at 5 mM assessed as infected cells
# Type: functional
Reported values of Activity for individual entries
Numbers only here, please. The scale is %.

Activity lookup needed for O=C(O)CC1S/C(=N\N=C\c2ccc(Cl)cc2Cl)N(c2ccccc2)C1=O (stereo not given) , thanks.
19.05

Activity lookup needed for CN(C)c1ccc(/C=N/N=C2\SC(CC(=O)O)C(=O)N2c2ccccc2)cc1 (stereo not given) , thanks.
0

Activity lookup needed for Cc1cccc(/C=N/N=C2\SC(CC(=O)O)C(=O)N2c2ccccc2)c1 (stereo not given) , thanks.
16.19

Activity lookup needed for Fc1ccccc1/C=N/NC(=S)Nc1ccccc1 , thanks.
14.32

Activity lookup needed for CC(C)(C)c1cc(/C=N/NC(=S)Nc2ccccc2)cc(C(C)(C)C)c1O , thanks.
30.51

***
Activity lookup needed for COc1ccc(/C=N/N=C2\SC(CC(=O)O)C(=O)N2c2ccccc2)c(OC)c1 (stereo not given) , thanks.
0

Activity lookup needed for COc1cccc(/C=N/N=C2\SC(CC(=O)O)C(=O)N2c2ccccc2)c1 (stereo not given) , thanks.
7.3

Activity lookup needed for COc1ccc(/C=N/NC(=S)Nc2ccccc2)c(OC)c1 , thanks.
9.2

Activity lookup needed for O=C(O)CC1S/C(=N\N=C\c2ccc(F)cc2)N(c2ccccc2)C1=O (stereo not given) , thanks.
0

Activity lookup needed for CN(C)c1ccc(/C=N/NC(=S)Nc2ccccc2)cc1 , thanks.
18.14

Values from ChEMBL document CHEMBL1140759
